system: T1, CD27 expressed on the cell surface (HT1080_CD27 cells) (human, UniProt P26842 20-260); also: test concentration or dose not given here
T1 sequence (looked up): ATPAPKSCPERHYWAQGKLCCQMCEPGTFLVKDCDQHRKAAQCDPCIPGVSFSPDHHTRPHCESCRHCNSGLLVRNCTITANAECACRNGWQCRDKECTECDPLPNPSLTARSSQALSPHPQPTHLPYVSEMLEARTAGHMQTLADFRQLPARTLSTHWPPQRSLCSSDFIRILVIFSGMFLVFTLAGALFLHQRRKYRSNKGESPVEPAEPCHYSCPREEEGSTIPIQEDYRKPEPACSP
measurement-notes: cell-based or functional assay
experimental-endpoint: IL-8, cross-linked by F(ab')2 fragment [abs. corr.]

A selection of reference data follows.
>  <binder>
P018.S.10.A.E01 (antibody, V domains shown, V regions on human Ig constant parts; also called AB27_175) VH: QEQLVESGGGLVQPEGSLTLTCTATGIDFSTNYRSCWVRQAPGKGLEWIACIDTDDSDSTYYASWAKGRFTISKTSSTTVTLQMTSLTAADTATYFCTRAYTTSDYAWSFYLWGPGTLVTVSS VL: DLVMTQTPASVEAAVGGTVTIKCQTSQSISKFLNWYQQTPGQPPKLLIYRASTLESGVPSRFEGSGSGTEFTLTISDLESADAATYYCQCTYGGTSGSVWAFGGGTEVVVK

>  <assay-value>
2.54 abs. corr.

$$$$
>  <binder>
P018.S.08.A.H02 (antibody, V domains shown, V regions on human Ig constant parts; also called AB27_142) VH: QSLEESGGRLVTPGTPLTLTCTASGFSLSYYYMTWVRQAPGKGLEWIGITGGGGDTYYGTWAKGRFTISKTSTTVDLKMTSPTTEDTATYFCARGTDGAAHTGFALWGQGTLVTVSS VL: DIVMTQTPASVEAAVGGTVTIKCQASEDISSRLSWYQQKPGQPPKLLIYLASTLASGVPSRFKGSGSGTQFTLTISDLESADAATYYCQSSSYGTSTIYGTFGGGTEVVVK

>  <assay-value>
1.91 abs. corr.

$$$$

Please look at the following binder next.
If you can, please state the reported IL-8, cross-linked by F(ab')2 fragment [abs. corr.] value of P018.S.07.A.H04 (antibody, V domains shown, V regions on human Ig constant parts; also called AB27_132) VH: QSLEESGGRLVTPGTPLTLTCTVSGLSLSSYDMSWVRQAPGKGLEWIGYIWSGGSTDYASWAKGRFTISKTSTTVDLKIISPTTEDTATYFCARGYVEFDLWGPGTLVTVSS VL: DPVLTQTPPSVSAAVGGTVTINCQSSQSLYSNNYLSWYQQKAGQPPKVLIWPASSLASGVPSRFKGSASGTQFTLTISELQSDDAATYYCQGTFYDSGWLSAFGGGTEVVVK .
1.86 abs. corr.

src = patent US20210253725A1
